Parameter: IC50. Scope: all listed entries.
Assay: Inhibition of AmpC beta lactamase (unknown origin) incubated for 5 mins by UV-Vis spectrophotometric analysis in absence of Triton X-100
Value expressed in µM; do not type the unit.

O=c1cc(-c2ccc(O)c(O)c2)oc2cc(O)cc(O)c12 21.9

Turning to the following compound.
Task: Report measured IC50; entry is `O=c1c(-c2ccc(O)cc2)coc2cc(O)cc(O)c12`
Result: 16.7

====

Molecular target: Cruzipain (Trypanosoma cruzi, UniProt P25779)
Sequence (P25779 whole entry): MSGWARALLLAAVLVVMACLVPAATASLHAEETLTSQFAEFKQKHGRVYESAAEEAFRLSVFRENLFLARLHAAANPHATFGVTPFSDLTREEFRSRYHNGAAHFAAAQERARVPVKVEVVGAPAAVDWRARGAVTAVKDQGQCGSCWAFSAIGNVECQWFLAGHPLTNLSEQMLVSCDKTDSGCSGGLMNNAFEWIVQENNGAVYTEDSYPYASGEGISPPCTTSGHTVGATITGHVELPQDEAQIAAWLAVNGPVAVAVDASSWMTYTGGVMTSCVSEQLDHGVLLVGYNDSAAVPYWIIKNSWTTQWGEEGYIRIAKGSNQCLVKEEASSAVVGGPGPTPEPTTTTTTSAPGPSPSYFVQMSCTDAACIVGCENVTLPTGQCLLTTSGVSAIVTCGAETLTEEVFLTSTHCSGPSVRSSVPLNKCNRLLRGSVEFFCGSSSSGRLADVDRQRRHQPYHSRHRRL
Experiment: Inhibition of Trypanosoma cruzi cruzaine using Z-Phe-Arg-aminomethylcoumarin as substrate incubated for 5 mins by spectrofluorimetric analysis in absence of Tween-80
Entries and their pIC50
On this scale, pIC50 is minus log10 of a concentration expressed in M (mol/L).

O=c1c(-c2ccc(O)cc2)coc2cc(O)cc(O)c12 4.08

Let us examine a further case.
Task: Under Cruzipain (Trypanosoma cruzi, UniProt P25779), report pIC50 for `O=c1cc(-c2ccc(O)c(O)c2)oc2cc(O)cc(O)c12`
Result: 4.56

====

Biological target: C-C chemokine receptor type 4 (Homo sapiens, UniProt P51679)
Sequence (P51679 whole entry): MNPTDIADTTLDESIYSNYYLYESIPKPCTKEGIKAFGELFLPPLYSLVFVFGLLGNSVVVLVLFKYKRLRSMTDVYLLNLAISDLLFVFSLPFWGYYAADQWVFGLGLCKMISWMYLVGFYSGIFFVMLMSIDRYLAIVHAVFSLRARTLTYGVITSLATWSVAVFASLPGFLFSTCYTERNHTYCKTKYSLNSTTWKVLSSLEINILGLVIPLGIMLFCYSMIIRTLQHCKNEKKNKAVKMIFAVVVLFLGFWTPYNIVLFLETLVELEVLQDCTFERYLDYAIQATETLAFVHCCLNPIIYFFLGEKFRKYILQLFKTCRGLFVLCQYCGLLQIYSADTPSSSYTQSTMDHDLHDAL
Experiment: Inhibition of CCL22-stimulated CCR4 in human HTLA cells pre-incubated for 20 mins measured on day 4 by beta arrestin-recruitment mediated luciferase reporter gene assay
Test Readout: IC50 (nM)
Kindly provide the numeric value in nM only, without the unit symbol.

Task: Specify reported IC50 for the compound shown: CCC(C)n1ncn(-c2ccc(N3CCN(c4ccc(OCC5COC(Cn6cncn6)(c6ccc(Cl)cc6Cl)O5)cc4)CC3)cc2)c1=O (stereo unspecified) [ITRACONAZOLE]
Result: 501

====

Molecular target: Vasopressin V2 receptor (Homo sapiens, UniProt P30518)
Sequence (P30518 whole entry): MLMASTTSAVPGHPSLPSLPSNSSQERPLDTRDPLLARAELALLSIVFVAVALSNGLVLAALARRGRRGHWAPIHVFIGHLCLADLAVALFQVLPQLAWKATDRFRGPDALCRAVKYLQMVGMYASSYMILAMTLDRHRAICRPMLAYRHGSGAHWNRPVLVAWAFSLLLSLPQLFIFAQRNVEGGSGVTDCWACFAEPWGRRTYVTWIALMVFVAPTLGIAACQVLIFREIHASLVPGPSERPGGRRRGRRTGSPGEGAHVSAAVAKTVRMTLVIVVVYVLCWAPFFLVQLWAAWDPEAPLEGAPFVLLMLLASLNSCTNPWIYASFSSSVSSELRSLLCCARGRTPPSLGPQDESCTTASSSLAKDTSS
Assay: Inhibition of vasopressin-stimulated vasopressin V2 receptor in human HTLA cells pre-incubated for 20 mins with centrifuged compound solution measured on day 4 by beta arrestin-recruitment mediated luciferase reporter gene assay
Test Readout: IC50 (µM)
Numbers only; they are read as µM.

Task: Let me know recorded IC50 for CCC(C)n1ncn(-c2ccc(N3CCN(c4ccc(OCC5COC(Cn6cncn6)(c6ccc(Cl)cc6Cl)O5)cc4)CC3)cc2)c1=O (stereo unspecified) [ITRACONAZOLE] , thanks.
Result: 11.9

====

Target: Cruzipain (Trypanosoma cruzi, UniProt P25779)
Assay: Inhibition of Trypanosoma cruzi cruzaine using Z-Phe-Arg-aminomethylcoumarin as substrate incubated for 5 mins by spectrofluorimetric analysis in presence of Tween-80
Test Readout: IC50 (µM)
Give just the numeric value; µM need not be written.

Task: Please indicate IC50 recorded for `O=c1cc(-c2ccc(O)c(O)c2)oc2cc(O)cc(O)c12`
Result: 156
